The values you see were collected from PubChem BioAssay AID1508600.

Consider the following sequences and their measured z-score readings.
experiment-summary: Components of the Cytosolic LPS Sensing Pathway: Gene Identification via Genome-wide siRNA Screen;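 further: robust z of the log signal after scaling to non-targeting control siRNA wells of the plate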
particulars: RAW264.7 macrophages, IL-1a HTRF, actives lie on both sides, screened at 100 nM (by protocol), cells primed 5 h with Pam3CSK4 first
In all, about 53,000 sequences went through this assay and about 3,700 (7%) were called active. This is one part of a sample in which actives are shown more often than they occur.

sequence-chain: GGCAUCGUCACCAAACUGUTT against Fgf11
z-score: -2.51
--
sequence-chain: GGAGAGAAUCAGAGAGAACTT against Akr1c18
z-score: 0.276
--
sequence-chain: AAGGUUUGGAAACUCAUUGTT against Zbtb25
z-score: -1.77
--
sequence-chain: GCCAAGGGUUUGAAAGCCATT against Tpm1
z-score: -0.949
--
sequence-chain: GGAAGUUACUGUGAGAUAATT against Mtbp
z-score: 0.265
--
sequence-chain: GGAAAGAAAAAUGAAGCUUTT against Tmem167b
z-score: -0.548
--
sequence-chain: CCUGUCGUUUAACCCUGUCTT against Fis1
z-score: -0.96
--
sequence-chain: GGAGAAAUGCCAUUGCGUCTT against Wnt3
z-score: 0.169
--
sequence-chain: CCAGAUUCGAAUAUCUAAGTT against Mrps30
z-score: 0.935
--
sequence-chain: GCUGAACCUAUGAGGGAGATT against Gpank1
z-score: 0.809
--
sequence-chain: GGUCAUUCACAAGUCCUUUTT against Serpinb6b
z-score: 0.863
--
sequence-chain: GGAGUCACCAGACUUGUGUTT against Svs3b
z-score: 0.637
